Collected ELISA signal values appear next to each entry.
# study.target: T1, MUC16 18mer (not fully specified)
# T1 construct: also called non-glycosylated 18-mer MUC16 peptide
# T1 peptide: CTRNGTQLQNFTLDRSSV
# run.description: ELISA 12/24/13 (sups from time of freezing), dilution 400, column 18
Ends that are not written are not given here.
Just the number, please.

18C6.D12 (antibody, V domains shown, Mouse monoclonal from a hybridoma; also called MUC16 Glycosylation Antibody 18C6) VH: QVTLKESGPGILQPSQTLSLTCSFSGFSLSTVGMGVGWSRQPSGKGLEWLAHIWWDDEDKYYNPALKSRLTISKDTSKNQVFLKIANVDTADTATYYCTRIGTAQATDALDYWGQGTSVTVSS VL: DIVMTQAAPSVPVTPGESVSISCRSSKSLLHSNGNTYLYWFLQRPGQSPQRLIYYMSNLASGVPDRFSGRGSGTDFTLRISRVEAEDVGVYYCMQSLEYPLTFGGGTKLEIK :: 0.45
7B12.B3 (antibody, V domains shown, Mouse monoclonal from a hybridoma; also called MUC16 Glycosylation Antibody 7B12) VH: QVTLKESGPGILQPSQTLSLTCSFSGFSLSTVGMGVGWSRQPSGKGLEWLAHIWWDDEDKYYNPALKSRLTISKDTSKNQVFLKIANVDTADSATYYCTRIGTAQATDALDYWGQGTSVTVSS VL: DIVMTQAAPSVSVTPGESVSISCRSSKSLRKSNGNTYLYWFLQRPGQSPQRLIYYMSNLASGVPDRFSGRGSGTDFTLRISRVEAEDVGVYYCMQSLEYPLTFGGGTKLKIK :: 0.33

Kindly consider the entry below.
Incoming: Any idea what its ELISA signal is? The binder is 19C11.H6 (antibody, V domains shown, Mouse monoclonal from a hybridoma; Used as 89Zr-DFO-labelled antibody in the internalization assay; also called MUC16 Glycosylation Antibody 19C11) VH: QVNLKESGPGKLQPSQTLSLTCSFSGFSLSTLGMGVGWIRQSSGKGLEWLAHIWWDDDKYYNPALKSRLTISRATSKNQVFLKIVNVGTADTATYYCARIGTAQATDALDYWGQGTSVTVSS VL: DIVMTQAAPSIPVTPGESVSISCRSSKSLLHSNGNTYLYWFLQRPGQSPQRLIYYMSNLASGVPDRFSGRGSGTDFTLKISRVEAGDVGVYYCMQGLEHPLTFGGGTKLEIK
Outgoing: 0.2
